Taken from patent US11149033B2.

Would you kindly list CC50 for each of these compounds?
TEST_SUMMARY: in vitro
EXPERIMENTAL_CONDITIONS: CC50, beside the EC50 of c2

query: Suppose we examine the compound CC(C)c1ccccc1CCc1nnc(Cc2ccc(Br)cc2)o1 ; what CC50 value has been reported?
result: > 50 µM

query: Input Cc1nc2ccccc2n1Cc1nnc(/C=C/c2ccc(F)cc2Cl)o1
result: > 50 µM

query: Input Brc1ccc(Nc2nnc(CCc3ccccc3-c3ccccc3)o2)cc1
result: > 50 µM

query: Input Brc1ccc(Cc2nnc(/C=C/c3ccccc3)o2)cc1
result: 12.6 µM

query: Input CC(C)c1ccccc1/C=C/c1nnc(Cc2cccc(Br)c2)o1
result: > 50 µM

query: Input Fc1ccc(/C=C/c2nnc(Cc3ccccc3)o2)c(Cl)c1
result: > 50 µM

query: Input Brc1ccc(Cc2nnc(-c3cc4ccccc4o3)o2)cc1
result: > 50 µM

query: Input Clc1ccccc1/C=C/c1nnc(Cc2ccc(Br)cc2)o1
result: > 50 µM

query: Input Cc1ccccc1C(C)Cc1nnc(Cc2ccc(Br)cc2)o1 (stereo not drawn)
result: 46.7 µM

query: Input Cc1cc(Cc2nnc(/C=C/c3ccc(F)cc3Cl)o2)ccc1Br
result: 6.53 µM

query: Input Oc1ccccc1/C=C/c1nnc(Cc2ccc(Br)cc2)o1
result: > 50 µM

query: Input Cc1ccccc1CCc1nnc(Nc2ccc(Br)cc2)o1
result: > 50 µM

query: Input Fc1ccc(/C=C/c2nnc(Cc3ccc(Br)c(F)c3)o2)c(Cl)c1
result: > 50 µM

query: Input COc1ccccc1/C=C/c1nnc(Cc2cccc(Br)c2)o1
result: 48.1 µM

query: Input Fc1ccc(/C=C/c2nnc(Cc3cccc(Br)c3)o2)c(F)c1
result: > 50 µM
